- Method: Vasodilation activity against depolarization-induced contraction in anaesthetized white rabbit basilar artery
- Format: functional, tissue-based, Oryctolagus cuniculus
Each entry below carries its recorded EC50.
# value in µM; strip the unit string

Some solved cases for reference:
COc1cc(/C=C/C(=O)CC(=O)/C=C/c2ccc(O)c(OC)c2)ccc1O ... 7.48
COc1cc(/C=C/C(=O)c2cccc(NS(=O)(=O)c3ccc(Cl)cc3)c2)ccc1O ... 5.58

Now take the following compound into account.
[Q] Item `COc1cc(/C=C/C(=O)c2cccc(NS(=O)(=O)c3c(Cl)cccc3Cl)c2)ccc1O` has what recorded EC50?
[A] 2.78
